Assignment: determine reported hCD71 for the given binders.
target.system: T1, recombinant biotinylated CD71 extracellular domain (Sino Biologics) with an N-terminal 6His tag (human, UniProt P02786 89-760, biotinylated (sites not given))
T1 construct: extracellular domain; also called hCD71; huCD71
T1 sequence (P02786 other isoform, or with tags, fused parts or gaps): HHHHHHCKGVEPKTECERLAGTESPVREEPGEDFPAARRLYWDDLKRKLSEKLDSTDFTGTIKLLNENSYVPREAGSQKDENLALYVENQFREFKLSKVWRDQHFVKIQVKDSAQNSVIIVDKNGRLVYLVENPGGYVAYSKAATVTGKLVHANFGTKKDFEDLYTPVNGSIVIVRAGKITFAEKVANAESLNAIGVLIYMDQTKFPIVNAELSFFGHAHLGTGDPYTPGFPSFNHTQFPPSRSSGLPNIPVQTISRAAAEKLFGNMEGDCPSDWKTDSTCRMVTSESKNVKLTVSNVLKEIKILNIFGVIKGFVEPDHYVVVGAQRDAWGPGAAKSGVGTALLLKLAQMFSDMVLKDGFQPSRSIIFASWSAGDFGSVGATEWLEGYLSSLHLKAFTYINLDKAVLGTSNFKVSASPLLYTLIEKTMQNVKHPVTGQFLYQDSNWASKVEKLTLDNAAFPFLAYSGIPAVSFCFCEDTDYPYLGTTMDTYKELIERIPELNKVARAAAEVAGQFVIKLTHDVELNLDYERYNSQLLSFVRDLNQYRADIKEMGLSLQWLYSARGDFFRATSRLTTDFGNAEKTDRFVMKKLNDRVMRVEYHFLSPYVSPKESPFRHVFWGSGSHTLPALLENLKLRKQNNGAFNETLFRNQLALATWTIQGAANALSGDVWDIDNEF
protocol.details: screening ELISA

Look up hCD71: SEQ ID NO 60 (designed binder, FN3 domain) MLPAPKNLVVSRVTEDSARLSWTAPDAAFDSFTIWYAEAIGHGEAIVLTVPGSERSYDLTGLKPGTEYWVDIWGVKGGQQSKPLSAIFTT
4.48e+06

What about this binder? SEQ ID NO 50 (designed binder, FN3 domain) MLPAPKNLVVSRVTEDSARLSWTAPDAAFDSFVIEYREGAWYGEAIVLTVPGSERSYDLTGLKPGTEYFVDITGVKGGWWSDPLSAIFTT
1.08e+07

# iterate: SEQ ID NO 38 (designed binder, FN3 domain) MLPAPKNLVVSRVTEDSARLSWTAPDAAFDSFHIAYEESHTTGEAIFLRVPGSERSYDLTGLKPGTEYSVSIEGVKGGHYSPPLTAKFTT
840000

Repeat for the following binder: SEQ ID NO 37 (designed binder, FN3 domain) MLPAPKNLVVSRVTEDSARLSWTAPDAAFDSFHIIYTEEEKEGEAIYLRVPGSERSYDLTGLKPGTEYLVEIEGVKGGKRSVPLNASFTT
1.27e+06

Ref: patent US20210145976A1
